assay explanation: Aqueous solubility at pH 7.4
Type: physicochemical
applied conditions: aqueous medium
Square brackets hold non-standard residues; d marks the D form. Peptide text beside a SMILES is read from it. * marks the point of attachment. Doxorubicin(3'-N) = COc1cccc2c1C(=O)c1c(O)c3c(c(O)c1C2=O)C[C@@](O)(C(=O)CO)C[C@@H]3O[C@H]1C[C@H](N*)[C@H](O)[C@H](C)O1; hTyr = N[C@@H](CCc1ccc(O)cc1)C(=O)O; hPhe = N[C@@H](CCc1ccccc1)C(=O)O
readout type: solubility
The reply should read as a number followed by its unit.

// returns reported solubility for input COc1cccc2c1C(=O)c1c(O)c3c(c(O)c1C2=O)C[C@@](O)(C(=O)CO)C[C@@H]3O[C@H]1C[C@H](NC(=O)[C@H](CC(C)C)NC(=O)[C@H](CCc2ccc(O)cc2)NC(=O)[C@H](CCc2ccccc2)NC(=O)CNC(=O)[C@H](CC(C)C)NC(=O)[C@@H]2CCCN2C(C)=O)[C@H](O)[C@H](C)O1 (Ac-PLG[hPhe][hTyr]L-{Doxorubicin(3'-N)}) 1 µg/mL

----------
system: Matrix metalloproteinase-9 (Homo sapiens)
assay explanation: Ratio Kcat to Ki for MMP9
Square brackets hold non-standard residues; d marks the D form. Peptide text beside a SMILES is read from it. * marks the point of attachment. Doxorubicin(3'-N) = COc1cccc2c1C(=O)c1c(O)c3c(c(O)c1C2=O)C[C@@](O)(C(=O)CO)C[C@@H]3O[C@H]1C[C@H](N*)[C@H](O)[C@H](C)O1; Cit = NC(=O)NCCC[C@H](N)C(=O)O; X5 = O=C(CS(=O)(=O)O)*; Bn = c1ccc(C*)cc1
Readings of Ratio for the listed compounds

- compound: "COc1cccc2c1C(=O)c1c(O)c3c(c(O)c1C2=O)C[C@@](O)(C(=O)CO)C[C@@H]3O[C@H]1C[C@H](NC(=O)[C@H](CC(C)C)NC(=O)[C@H](Cc2ccc(O)cc2)NC(=O)[C@H](COCc2ccccc2)NC(=O)CNC(=O)[C@H](CCCNC(N)=O)NC(=O)[C@@H]2CCCN2C(=O)CS(=O)(=O)O)[C@H](O)[C@H](C)O1 (X5-P[Cit]GS(Bn)YL-{Doxorubicin(3'-N)})"
  Ratio: 38

Kindly consider the entry below.
// returns reported Ratio for input COc1cccc2c1C(=O)c1c(O)c3c(c(O)c1C2=O)C[C@@](O)(C(=O)CO)C[C@@H]3O[C@H]1C[C@H](NC(=O)[C@H](CC(C)C)NC(=O)[C@H](Cc2ccc(O)cc2)NC(=O)[C@H](COCc2ccccc2)NC(=O)CNC(=O)[C@H](CC(C)C)NC(=O)[C@@H]2CCCN2C(=O)CS(=O)(=O)O)[C@H](O)[C@H](C)O1 (X5-PLGS(Bn)YL-{Doxorubicin(3'-N)}) 25

----------
system: UniProt P50281
assay explanation: Ratio Kcat to […] for MMP14
Numbered stars: 1 amine (or outer) side, 2 acyl side, 3 side chain; on linkers, the order of the positions; unused ones are H or OH. Square brackets hold non-standard residues; d marks the D form. Peptide text beside a SMILES is read from it. * marks the point of attachment. Doxorubicin(3'-N) = COc1cccc2c1C(=O)c1c(O)c3c(c(O)c1C2=O)C[C@@](O)(C(=O)CO)C[C@@H]3O[C@H]1C[C@H](N*)[C@H](O)[C@H](C)O1; X2 = O=C(C(CCc1ccncc1)N[*:1])[*:2]
readout type: Ratio
Number only, please.

// returns reported Ratio for input COc1cccc2c1C(=O)c1c(O)c3c(c(O)c1C2=O)C[C@@](O)(C(=O)CO)C[C@@H]3O[C@H]1C[C@H](NC(=O)[C@H](CC(C)C)NC(=O)[C@H](Cc2ccc(O)cc2)NC(=O)C(CCc2ccncc2)NC(=O)CNC(=O)[C@H](CC(C)C)NC(=O)[C@@H]2CCCN2C(C)=O)[C@H](O)[C@H](C)O1 (stereo partly specified) (Ac-PLG[X2]YL-{Doxorubicin(3'-N)}) 58
